The measured values listed here are drawn from patent US8906904B2.

METHOD NOTES: Assessment of solubility (McIlvaine buffers, 24 h shake, UPLC-UV)
Type: physicochemical
ASSAY CONTEXT: pH 6.8, aqueous buffer, kinetic from dmso stock
Protocol: Solubility is measured by the following method. 100 uL, 10 mM DMSO stock solution of each compound is prepared in a 96 well plate format. The experiment is done in single determination at 3 pH values (2.2, 4.5 and 6.8). For each pH and one reference, 40 uL of each compound is needed. McIlvaine pH 2.2: To 2.076 g citric acid monohydrate and 0.043 g Na2HPO4×2H2O add 100 ml deionized water […] The samples are measured with UPLC-UV using the chromatographic method described below. […]
VALUE KIND: solubility at 24 h
I'd appreciate it if you wrote the number followed by its unit.

Can you give me solubility at 24 h for all of these, one by one?
1. CCOc1c(C(=O)O)cnn1-c1cccc(-c2cccc(Cl)c2OCc2ccc3c(c2)CCN(C(C)CO)C3)n1 (stereo not shown)
2. CCOc1c(C(=O)O)cnn1-c1cccc(-c2cccc(C)c2OCc2ccc3c(c2C)CCN(C(C)COC)CC3)n1 (stereo not shown)
3. CCOc1c(C(=O)O)cnn1-c1cccc(-c2cccc(C)c2OCc2ccc3c(c2)CCCN(C2CCCOC2)C3)n1 (stereo not shown)
4. COc1c(C(=O)O)cnn1-c1cccc(-c2cccc(C)c2OCc2ccc3c(c2)CCN([C@H]2CC[C@@]4(CCCO4)CC2)C3)n1
5. COc1c(C(=O)O)cnn1-c1cccc(-c2cccc(C)c2OCc2cc(C#N)c3c(c2)CCN(C2CCOCC2)C3)n1
6. Cc1cccc(-c2cccc(-n3ncc(C(=O)O)c3OC(C)C)n2)c1OCc1ccc2c(c1)CCN(CC1(C)COC1)C2
7. CCOc1c(C(=O)O)cnn1-c1cccc(-c2cccc(C)c2OCc2ccc3c(c2C)CCN([C@H]2CCOC2)CC3)n1

A.
77 µg/mL
85 µg/mL
92 µg/mL
81 µg/mL
86 µg/mL
85 µg/mL
81 µg/mL

###

Task for the reader: assign each of the following compounds its reported solubility at 24 h.
METHOD NOTES: Assessment of solubility (McIlvaine buffers, 24 h shake, UPLC-UV)
Type: physicochemical
ASSAY CONTEXT: pH 6.8, aqueous buffer, kinetic from dmso stock
I'd appreciate it if you wrote the number followed by its unit.

Example entries begin here.
COMPOUND	solubility at 24 h
COc1c(C(=O)O)cnn1-c1cccc(-c2cccc(C)c2OCc2ccc3c(c2F)CCN(C[C@@H]2COCCO2)C3)n1	87 µg/mL
COc1c(C(=O)O)cnn1-c1cccc(-c2cccc(C)c2OCc2ccc3c(c2)CCN(CC(F)(F)F)C3)n1	80 µg/mL
CCOc1c(C(=O)O)cnn1-c1cccc(-c2cccc(C)c2OCc2ccc3c(c2C)CCN(CC2COCCO2)C3)n1 (stereo in doubt)	82 µg/mL

Please examine the following record next.
Q. For the compound shown here, CCOc1c(C(=O)O)cnn1-c1cccc(-c2cccc(C)c2OCc2cc(C)c3c(c2)CCN(C2CCCOC2)C3)n1 (stereo not shown) , give the reported solubility at 24 h.
A. 97 µg/mL

###

Task for the reader: assign each of the following compounds its reported solubility at 24 h.
METHOD NOTES: Assessment of solubility (McIlvaine buffers, 24 h shake, UPLC-UV)
Format: physicochemical
ASSAY CONTEXT: pH 6.8, aqueous buffer, kinetic from dmso stock

Can you give me solubility at 24 h for all of these, one by one?
1. CCOc1c(C(=O)O)cnn1-c1cccc(-c2cccc(C)c2OCc2ccc3c(c2C)CCN([C@H]2CCCOC2)C3)n1
2. COc1c(C(=O)O)cnn1-c1cccc(-c2cccc(C)c2OCc2ccc3c(c2)CCN(C[C@@H]2CCOC2)C3)n1
3. CCOc1c(C(=O)O)cnn1-c1cccc(-c2cccc(C)c2OCc2ccc3c(c2)CCN(C2CCCOC2)C3)n1 (centres unmarked)
4. CCc1cc(COc2c(C)cccc2-c2cccc(-n3ncc(C(=O)O)c3OC)n2)cc2c1CN(C1CCOCC1)CC2
5. COCCOc1c(C(=O)O)cnn1-c1cccc(-c2cccc(C)c2OCc2ccc3c(c2C)CCN(C2CCOC2)C3)n1 (centres unmarked)

A.
1: 79 µg/mL; 2: 73 µg/mL; 3: 74 µg/mL; 4: 74 µg/mL; 5: 78 µg/mL
